Hello, the source for this data is patent US4980349A, in case you need it.

Tested on: foreign-body (sponge) granuloma in rats
Assay: Experimental granuloma induced by foreign body, weight of the granulomas
Assay type: in vivo, Wistar rats
Conditions: Rattus norvegicus, po, 240 h; 50 mg/kg, 10 days after implantation; Table XIb; read-out: decrease in the weight of the granulomas
Measured change in vivo at 50 mg/kg accompanies every entry in the list below.
API: value field is a number in %; no unit string.

Field: example entries. Status: answers known.
| Compound | Measurement Units | Assay Value |
| --- | --- | --- |
| O=C(O)CCCCCCCCCCCNS(=O)(=O)c1ccc(Cl)c(C(=O)c2ccc(Cl)cc2Cl)c1 | % | -50 |
| O=C(O)CCCCCCCCCCNS(=O)(=O)c1ccc(Cl)cc1C(O)c1ccccc1Cl (centres unmarked) | % | -55 |
| O=C(O)CCCCCCCCCCCNS(=O)(=O)c1ccc(Cl)cc1C(=O)c1ccccc1Cl | % | -50 |
| O=C(O)CCCCCCCCCCNS(=O)(=O)c1ccc(Cl)c(C(=O)c2ccc(Cl)cc2Cl)c1 | % | -20 |
| O=C(O)CCCCCCCCCCNS(=O)(=O)c1ccc(Cl)cc1Cc1ccccc1Cl | % | -55 |

Challenge: Given the entry O=C(O)CCCCCCCCCCNS(=O)(=O)c1ccc(Cl)c(C(=O)c2ccc(Cl)cc2)c1 , report its measured change in vivo at 50 mg/kg.
Response given: -30

Challenge: Moving on to O=C(O)CCCCCCCCCCCNS(=O)(=O)c1ccc(Cl)c(C(=O)c2ccccc2)c1
Response given: -52

Challenge: Moving on to O=C(O)CCCCCCCCCCNS(=O)(=O)c1ccc(Cl)cc1C(=O)c1ccccc1Cl
Response given: -50

----------
Measured change in vivo at 25 mg/kg accompanies every entry in the list below.
System: rat hind foot kaolin-induced arthritis
Test: Kaolin-induced arthritis test, second experiment, chronic phase (weight of the foot at the 12th hour)
Type: in vivo
Conditions: po, 12 h, 25 mg/kg, 12th hour, Table IXb, read-out: percentage significant decrease in the weight of the treated foot
API: value field is a number in %; no unit string.

Field: example entries. Status: answers known.
| Molecule | change in vivo at 25 mg/kg / % |
| --- | --- |
| O=C(O)CCCCCCCCCCNS(=O)(=O)c1ccc(Cl)cc1C(O)c1ccccc1Cl (centres unmarked) [Compound 1796] | -50 |
| O=C(O)CCCCCCCCCCCNS(=O)(=O)c1ccc(Cl)c(C(=O)c2ccccc2)c1 [Compound 1736] | -45 |
| O=C(O)CCCCCCCCCCNS(=O)(=O)c1ccc(Cl)cc1Cc1ccccc1Cl [Compound 1797] | -50 |
| O=C(O)CCCCCCCCCCCNS(=O)(=O)c1ccc(Cl)cc1C(=O)c1ccccc1Cl [Compound 1755] | -45 |
| O=C(O)CCCCCCCCCCNS(=O)(=O)c1ccc(Cl)cc1C(=O)c1ccccc1Cl [Compound 1574] | -58 |

Challenge: Given the entry O=C(O)CCCCCCCCCCNS(=O)(=O)c1ccc(Cl)c(C(=O)c2ccc(Cl)cc2Cl)c1 [Compound 1763] , report its measured change in vivo at 25 mg/kg.
Response given: -38

Challenge: Moving on to O=C(O)CCCCCCCCCCCNS(=O)(=O)c1ccc(Cl)c(C(=O)c2ccc(Cl)cc2Cl)c1 [Compound 1764]
Response given: -45

Challenge: Moving on to O=C(O)CCCCCCCCCCNS(=O)(=O)c1ccc(Cl)c(C(=O)c2ccc(Cl)cc2)c1 [Compound 1761]
Response given: -40

----------
Tested on: foreign-body (sponge) granuloma in rats
Experiment: Experimental granuloma induced by foreign body, weight of the granulomas
Format: in vivo, Wistar rats
Details: Rattus norvegicus, po, 240 h; 100 mg/kg, 10 days after implantation; Table XIb; read-out: decrease in the weight of the granulomas
Measured Attribute: change in vivo at 100 mg/kg (%)
API: value field is a number in %; no unit string.

Field: example entries. Status: answers known.
| Compound | change in vivo at 100 mg/kg (%) |
| --- | --- |
| O=C(O)CCCCCCCCCCNS(=O)(=O)c1ccc(Cl)c(C(=O)c2ccc(Cl)cc2)c1 [Compound 1761] | -45 |
| O=C(O)CCCCCCCCCCCNS(=O)(=O)c1ccc(Cl)c(C(=O)c2ccc(Cl)cc2Cl)c1 [Compound 1764] | -55 |
| O=C(O)CCCCCCCCCCNS(=O)(=O)c1ccc(Cl)c(C(=O)c2ccc(Cl)cc2Cl)c1 [Compound 1763] | -45 |

Attention now turns to another entry.
Challenge: Given the entry O=C(O)CCCCCCCCCCNS(=O)(=O)c1ccc(Cl)cc1Cc1ccccc1Cl [Compound 1797] , report its measured change in vivo at 100 mg/kg.
Response given: -60

----------
Measured inhibition at 40 µM accompanies every entry in the list below.
Tested on: biosynthesis of leukotrienes B4 (LTB4), human polymorphonuclear leukocytes
Assay: Biosynthesis of LTB4, isomers and oxidized metabolites in human polymorphonuclear leukocytes
Assay type: cell-based
Details: Leukocyte, first experiment, read-out: Isomers of LTB4: percentage inhibition (+ : percentage increase in the production)
API: value field is a number in %; no unit string.

| Smiles String | Assay Value |
| --- | --- |
| O=C(O)CCCCCCCCCCNS(=O)(=O)c1cccc(C(=O)c2ccccc2)c1 | 35 |

Challenge: Given the entry O=C(O)CCCCCCCCCCNS(=O)(=O)c1cccc(C(=O)c2cc(S(=O)(=O)NCCCCCCCCCCC(=O)O)ccc2Cl)c1 , report its measured inhibition at 40 µM.
Response given: -35

Challenge: Moving on to O=C(O)CCCCCCCCCCCNS(=O)(=O)c1ccccc1C(=O)c1ccccc1
Response given: 15

----------
System: rat hind foot carragheenin-induced oedema
Assay: Carragheenin-induced oedema test
Assay type: in vivo
Settings: 3 h, 25 mg/kg oral, first experiment, Table X, read-out: percentage inhibition of the inflammation
Please enter met where change in vivo at 25 mg/kg is greater than or equal to -30%, and not met where it is lower.

Worked examples, 6 compounds total:
| Smiles String | Target Under Test | Label Value |
| --- | --- | --- |
| O=C(c1ccccc1)c1ccccc1S(=O)(=O)NCCCN1CCOCC1 | rat hind foot carragheenin-induced oedema | met |
| O=C(O)CCCCCCCCCCNS(=O)(=O)c1ccccc1C(=O)c1ccccc1 | rat hind foot carragheenin-induced oedema | not met |
| O=C(O)CCCCCCCCCCCNS(=O)(=O)c1ccccc1C(=O)c1ccccc1 | rat hind foot carragheenin-induced oedema | met |
| O=C(c1ccccc1)c1cc(Cl)ccc1S(=O)(=O)NCCN1CCOCC1 | rat hind foot carragheenin-induced oedema | met |
| O=C(O)CCCCCCCCCCNS(=O)(=O)c1ccc(C(=O)c2ccccc2)cc1 | rat hind foot carragheenin-induced oedema | not met |
| O=C(c1ccc(Cl)cc1)c1ccccc1S(=O)(=O)NCCCN1CCOCC1 | rat hind foot carragheenin-induced oedema | met |

Challenge: Assess whether reported change in vivo at 25 mg/kg for O=C(O)CCCCCCCCCCNS(=O)(=O)c1ccc([N+](=O)[O-])cc1C(=O)c1ccccc1 sits at -30% or higher.
Response given: met

----------
Measured change in vivo at 25 mg/kg accompanies every entry in the list below.
Tested on: foreign-body (sponge) granuloma in rats
Experiment: Experimental granuloma induced by foreign body, weight of the granulomas
Assay type: in vivo, Wistar rats
Conditions: Rattus norvegicus, po, 240 h; 25 mg/kg, 10 days after implantation; Table XIb; read-out: decrease in the weight of the granulomas
API: value field is a number in %; no unit string.

Field: example entries. Status: answers known.
| Compound | change in vivo at 25 mg/kg [%] |
| --- | --- |
| O=C(O)CCCCCCCCCCCNS(=O)(=O)c1ccc(Cl)c(C(=O)c2ccccc2)c1 | -48 |
| O=C(O)CCCCCCCCCCCNS(=O)(=O)c1ccc(Cl)cc1C(=O)c1ccccc1Cl | -45 |
| O=C(O)CCCCCCCCCCNS(=O)(=O)c1ccc(Cl)cc1C(O)c1ccccc1Cl (centres unmarked) | -50 |
| O=C(O)CCCCCCCCCCNS(=O)(=O)c1ccc(Cl)c(C(=O)c2ccc(Cl)cc2)c1 | -25 |
| O=C(O)CCCCCCCCCCNS(=O)(=O)c1ccc(Cl)cc1Cc1ccccc1Cl | -50 |
| O=C(O)CCCCCCCCCCCNS(=O)(=O)c1ccc(Cl)c(C(=O)c2ccc(Cl)cc2Cl)c1 | -45 |
| O=C(O)CCCCCCCCCCNS(=O)(=O)c1ccc(Cl)cc1C(=O)c1ccccc1Cl | -48 |

Attention now turns to another entry.
Challenge: Given the entry O=C(O)CCCCCCCCCCNS(=O)(=O)c1ccc(Cl)c(C(=O)c2ccc(Cl)cc2Cl)c1 , report its measured change in vivo at 25 mg/kg.
Response given: -15

----------
Measured change in vivo at 25 mg/kg accompanies every entry in the list below.
Tested on: pain threshold of brewer's yeast inflamed rat hind foot
Assay: Randall and Sellitto's test (analgesic activity)
Format: in vivo
Details: 25 mg/kg oral, first experiment, Table XII, read-out: percentage increase in the mean pain threshold
API: value field is a number in %; no unit string.

Field: example entries. Status: answers known.
| Smiles String | change in vivo at 25 mg/kg / % |
| --- | --- |
| O=C(O)CNS(=O)(=O)c1ccc(Cl)cc1C(=O)c1ccccc1Cl | 15 |
| O=C(O)CCCCCCCCCCNS(=O)(=O)c1ccc(C(=O)c2ccccc2)cc1 | 35 |
| O=C(O)CCCCCCCCCCCNS(=O)(=O)c1ccc(C(=O)c2ccccc2)cc1 | 25 |

Challenge: Given the entry O=C(O)CCCCCCCCCCNS(=O)(=O)c1cccc(C(=O)c2cc(S(=O)(=O)NCCCCCCCCCCC(=O)O)ccc2Cl)c1 , report its measured change in vivo at 25 mg/kg.
Response given: 25

Challenge: Moving on to O=C(c1ccccc1)c1cc(Cl)ccc1S(=O)(=O)NCCN1CCOCC1
Response given: 10

Challenge: Moving on to O=C(c1ccc(Cl)cc1)c1ccccc1S(=O)(=O)NCCCN1CCOCC1
Response given: 19
